target: His-tagged canine IL-31 (interleukin 31) recombinant protein (canine); test: BLI (Gator), biotinylated antibody on streptavidin probe, canine IL-31 as analyte
experimental.readout: log10 Kd (log10 of the value in nM)
Recall that a logarithmic scale is used here: each number is log10 of Kd in nM.

Data request: What log10 Kd value was documented for this binder, 7475-mHvKv-canIgGB (antibody, V domains shown) VH: EVKLVESGEGLVKPGGSLKLSCAASGFTFSSYAMSWVRQTPEKRLEWVAYISNGGDYIFYADTVKGRFTISRDNARNTLYLQMSSLKSEDTAMYYCTRRGHYNTSSYWYFDVWGTGTTVTVSS VL: DIVMTQSPKSMSMSVGERVTLSCKASENVGTYVSWYQQKPEQSPKLLIYGASNRYTGVPDRFTGSGSATDFTLTISSVQAEDLADYHCGQSYSYPPTFGAGTKLELKR ?
Data returned: 0.00

Data request: What log10 Kd value was documented for this binder, B2-H3K1-canIgGB (antibody, V domains shown) VH: EVQLVESGGDLVKPGGSLRLSCVASGFTFSDAWMDWVRQAPGKGLQWVAEIRSRAESHATYYAESVKGRFTISRDDAKNTVYLQMNSLRAEDTAVYYCTPASTMITTGWFAYWGQGTLVTVSS VL: EIVMTQTPLSLAVTPGELATISCRASQNISVYLHWYLQKPGQTPRVLIKYVSQSISGVSDRFSGSGSGSDFTLKISRVEAEDVGVYYCQNGHSFPYTFGQGTKLEIKR ?
Data returned: 1.01

Data request: What log10 Kd value was documented for this binder, B2-H2K2-canIgGB (antibody, V domains shown) VH: EVQLVESGGDLVKPGGSLRLSCVASGFTFSDAWMDWVRQAPGKGLEWVAEIRSRAESHATYYAESVKGRFTISRDDAKNMVYLQMNSLRAEDTAVYYCTPASTMITTGWFAYWGQGTLVTVSS VL: DIVMTQTPLSLSVSPGETASISCRASQNISVYLHWYRQKPGQSPQVLIKYVSQSISGVPDRFSGSGSGSDFTLRISRVEADDTGVYYCQNGHSFPYTFGQGTKLEIKR ?
Data returned: 0.96

Data request: What log10 Kd value was documented for this binder, 7475-H3K3-canIgGB (antibody, V domains shown) VH: EVQLVESGGDLVKPGGSLRLSCVASGFTFSSYAMSWVRQAPGKGLQWVARISNGGDYIFYADTVKGRFTISRDNAKNTLYLQMNSLRAEDTAMYYCTRRGHYNTSSYWYFDVWGQGTLVTVSS VL: EIVMTQSPASLSLSQEEKVTITCKASENVGTYVSWYQQKPGQAPKLLIYGASNRYTGVPSRFSGSGSGTDFSFTISSLEPEDVAVYYCGQSYSYPPTFGAGTKVELKR ?
Data returned: 0.52

Data request: What log10 Kd value was documented for this binder, 6465-H3K3-canIgGB (antibody, V domains shown) VH: EVQLVESGGDLVKPGGSLRLSCVASGYSFTNYYLYWVRQAPGKGLEWVAELNPRNGGTNLNAKFKTRFTISRDNAKNMAYLQMNSLRAEDTAVYYCTRGGTTVVVRDVMDFWGQGTLVTVSS VL: DIVMTQTPLSLSVSPGEPASISCRASESVDSYGNSFMHWYRQKPGQSPQLLIYRASNLESGVPDRFSGSGSGTDFTLRISRVEADDAGVYYCQQSNEDPYTFGQGTKLEIKR ?
Data returned: 0.31

Data request: What log10 Kd value was documented for this binder, 6465-H1K3-canIgGB (antibody, V domains shown) VH: EVQLVESGGDLVKPGGSLRLSCVASGYSFTNYYLYWVRQAPGKGLEWVGELNPRNGGTNLNAKFKTRFTISVDKAKNMAYLQMNSLRAEDTAVYYCTRGGTTVVVRDVMDFWGQGTLVTVSS VL: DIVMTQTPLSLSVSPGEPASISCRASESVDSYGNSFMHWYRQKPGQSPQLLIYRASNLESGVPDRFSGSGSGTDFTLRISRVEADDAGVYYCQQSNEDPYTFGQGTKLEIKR ?
Data returned: 0.40

Data request: What log10 Kd value was documented for this binder, 7475-H3K2-canIgGB (antibody, V domains shown) VH: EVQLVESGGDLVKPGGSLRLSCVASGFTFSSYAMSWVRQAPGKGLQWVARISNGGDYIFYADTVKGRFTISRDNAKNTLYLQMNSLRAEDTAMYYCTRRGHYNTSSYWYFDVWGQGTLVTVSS VL: EIVMTQSPASLSLSQEEKVTITCKASENVGTYVSWYQQKPGQAPKLLIYGASNRYTGVPSRFSGSGSATDFTLTISSVEPEDVAVYYCGQSYSYPPTFGAGTKVELKR ?
Data returned: 0.73

Data request: What log10 Kd value was documented for this binder, 6465-H1K1-canIgGB (antibody, V domains shown) VH: EVQLVESGGDLVKPGGSLRLSCVASGYSFTNYYLYWVRQAPGKGLEWVGELNPRNGGTNLNAKFKTRFTISVDKAKNMAYLQMNSLRAEDTAVYYCTRGGTTVVVRDVMDFWGQGTLVTVSS VL: EIVLTQTPLSLAVTPGELATISCRASESVDSYGNSFMHWYLQKPGQTPRLLIYRASNLESGVSDRFSGSGSRTDFTLKISRVEAEDVGVYYCQQSNEDPYTFGQGTKLEIKR ?
Data returned: 0.51

Data request: What log10 Kd value was documented for this binder, B2-H1K2-canIgGB (antibody, V domains shown) VH: EVQLVESGGDLVKPGGSLRLSCVASGFTFSDAWMDWVRQAPGKGLQWLAEIRSRAESHATYYAESVKGRFTISRDDAKNTVYLQMNSLRAEDTAVYYCTPASTMITTGWFAYWGQGTLVTVSS VL: DIVMTQTPLSLSVSPGETASISCRASQNISVYLHWYRQKPGQSPQVLIKYVSQSISGVPDRFSGSGSGSDFTLRISRVEADDTGVYYCQNGHSFPYTFGQGTKLEIKR ?
Data returned: 1.14

Data request: What log10 Kd value was documented for this binder, 6465-H2K2-canIgGB (antibody, V domains shown) VH: EVQLVESGGDLVKPGGSLRLSCVASGYSFTNYYLYWVRQAPGKGLQWLGELNPRNGGTNLNAKFKTRFTISVDKAKNTAYLQMNSLRAEDTAVYYCTRGGTTVVVRDVMDFWGQGTLVTVSS VL: DIVLTQTPLSLSVSPGEPASISCRASESVDSYGNSFMHWYRQKPGQSPQLLIYRASNLESGVPDRFSGSGSRTDFTLRISRVEADDAGVYYCQQSNEDPYTFGQGTKLEIKR ?
Data returned: 1.25
